System: LOX IMVI melanoma
PROCEDURE SUMMARY: NCI tumour cell line growth inhibition, 48 h; in the data active = GI50 below about 0.43 µM; inactive = the rest
Choose the fitting class; nothing outside active, inactive is accepted.

COMPOUND	CLASS NAME
CN(C)C1CCN(C(=O)c2ccc(NC(=O)Nc3ccc(-c4nc(N5CCOCC5)c5cccn5n4)cc3)cc2)CC1	active

-- ask Lab log entry: Nc1ncc(-c2ccc3ncnc(Nc4ccc(F)c(Cl)c4)c3c2)cn1 — outcome as called in the assay?
-- reply inactive

-- ask Which outcome was entered for the compound O=C(/C=C/c1ccc[nH]1)c1ccc(-n2ccc(C(F)(F)F)n2)cc1 in this test?
-- reply inactive

-- ask How did this test come out for CC1(C)OC2C(CO[Si](C)(C)C(C)(C)C)OC(n3c(I)c(C#C[Si](C)(C)C)c(=O)[nH]c3=O)C2O1 (configuration not stated) ?
-- reply inactive

-- ask Check the results log: what was the call for CCOC(=O)Nc1cc2c(c(N)n1)N=C(c1ccccc1)CO2 ?
-- reply active

-- ask What call does the record list for S=c1[nH]c(=S)c2cc3ccccc3nc2[nH]1 ?
-- reply inactive

-- ask Kindly provide the recorded test outcome for the following compound: CC(=O)ON1CCCC(P(=O)(OCCSC(=O)C(C)(C)C)OCCSC(=O)C(C)(C)C)C1=O (configuration not stated)
-- reply inactive

-- ask For this compound, state the assay outcome: NC1CCN(Cc2ccccc2)CC1
-- reply inactive

-- ask Which outcome did this test record for the compound CCN1CCN(c2cc(C)c3cc(NC(=O)c4ccc(OC)c(OC)c4)ccc3n2)CC1 ?
-- reply inactive

###

Test system: HOP-92 NSCLC
PROCEDURE SUMMARY: NCI tumour cell line growth inhibition, 48 h
METRIC: TGI

Some solved cases for reference:
COMPOUND	TGI
CC(NC(=O)Cc1ccccc1)NC(=O)C(C)C(=O)Nc1ccccc1 (stereo unspecified)	> 100 µM
Cc1c2cc[n+](C)c(C)c2cc2c1[nH]c1ccccc12	50.8 µM
Cc1c(/C=N\NC(=S)NCCNC(=S)N/N=C\c2c(C)n(C)n(-c3ccccc3)c2=O)c(=O)n(-c2ccccc2)n1C	> 100 µM
CCOC(=O)c1c(-c2ccc(O)c(OC)c2)c(C#N)c(=S)n(C2OC(CO)C(O)C(O)C2O)c1-c1ccccc1 (stereo unspecified)	> 100 µM
Cc1cc(/N=C/c2ccc(N(C)C)cc2)n(-c2ccccc2)n1	> 100 µM
C#CC1/C(=C\C(=O)OC)CCCC1O (stereo unspecified)	> 100 µM

-- ask Request the reported TGI associated with COc1cc(N=Nc2ccc(O)c3ncccc23)c2ncccc2c1
-- reply > 100 µM

-- ask I'd like to know its TGI. The compound in question is CCOC(=O)C1S/C(=N\C(=N)N[N+](=O)[O-])N=C1C (stereo unspecified)
-- reply > 100 µM

-- ask Sample COc1ccc(N2C(=O)CC(=O)N(NC(=O)C(C)Oc3ccccc3C)C2=S)cc1 (stereo unspecified) — what was its TGI?
-- reply > 100 µM

-- ask Look at this compound and give its reported TGI. Oc1cc(Cl)cc2cccnc12
-- reply > 100 µM

-- ask Can you share its TGI? I mean this compound: O=C(/C(=C/c1ccc(Cl)cc1)c1ccccc1)c1ccccc1
-- reply 41.7 µM

###

Tested on: SNB-78 CNS
PROCEDURE SUMMARY: NCI tumour cell line growth inhibition, 48 h
The entries below come with measured TGI values attached.

Use these answered entries as a reference point.
COMPOUND	TGI
CCOC(=O)N[C@H]1CCc2cc(OC)c(OC)c(OC)c2-c2ccc(SC)c(=O)cc21	> 100 µM
CCCCCCCCCCCCCCCCNc1cccc2ccccc12	> 100 µM
COc1ccc2c(c1OCC(=O)O)C(=O)C(CCC(=O)O)CC2 (stereo not given)	> 100 µM
CCC[CH2][Sn]([CH2]CCC)([O]C(=O)c1ccc(OC)c(OC)c1OC)[O][Sn]([CH2]CCC)([CH2]CCC)[O]C(=O)c1ccc(OC)c(OC)c1OC	0.211 µM

Let us examine a further case.
-- ask Observed TGI on SNB-78 CNS for O=C(CC1C(=O)Nc2ccccc2S1=O)Nc1cc(Cl)ccc1Cl (stereo not given) , please.
-- reply > 100 µM
